# System: MDA-MB-231 breast
# experimental-details: NCI tumour cell line growth inhibition, 48 h
TGI overview
Field: numeric (µM). Do not append units.

Summary line: COc1cccc2cc(N(C)c3nc(C)nc4ccsc34)ccc12 , MDA-MB-231 breast, reported TGI = 15

Summary line: COc1cc(OC)c(NC2=NCCO2)cc1Cl , MDA-MB-231 breast, reported TGI = 64.5

Summary line: CCOc1ccc(-n2c(=O)n3c(Nc4ccc(Cl)cc4)nc4c(c(=O)n(C)c(=O)n4C)n3c2=O)cc1 , MDA-MB-231 breast, reported TGI = 35.1

Summary line: COc1ccc(Cn2cc3c(c2-c2ccccc2)CCc2cncnc2-3)cc1 , MDA-MB-231 breast, reported TGI = 18.3

Summary line: O=C1CSC(c2c(O)ccc3ccccc23)N1n1c(=S)[nH]nc(/C=C/c2c(O)ccc3ccccc23)c1=O (centres undefined) , MDA-MB-231 breast, reported TGI = 20.7

###

TGI overview
# Test system: CCRF-CEM leukemia
# experimental-details: NCI tumour cell line growth inhibition, 48 h
Field: numeric (µM). Do not append units.

The measured TGI associated with Cc1[nH]ccc2cc3nc4ccccc4c3cc12 reads 10

The measured TGI associated with CC1(C)C(C(=O)OC(C#N)c2cccc(OCC(=O)OCc3ccccc3)c2)C1(C)C (stereo unspecified) reads 76.5

The measured TGI associated with CN(C)Cc1cc(C(=O)/C=C/c2c(F)cccc2Cl)cc(CN(C)C)c1O reads 24.1

###

# Tested on: A498 renal
# experimental-details: NCI tumour cell line growth inhibition, 48 h
TGI overview
Field: numeric (µM). Do not append units.

CCCCCC/C=C\CCCCCCCCCc1c(O)c(OC)cc(O)c1CN(C)C; 33.4
CN1CCN(c2ccc3nc(-c4ccc5nc(-c6ccc(N(C)CCCl)cc6)[nH]c5c4)[nH]c3c2)CC1; 6.74

The measured TGI associated with O/N=C1/C(=C/c2ccc(Cl)cc2)CCCC1C(NO)c1ccc(Cl)cc1 (stereo not given) reads 38.9

The measured TGI associated with CC(C)=CCC[C@@H](C)C1=C(O)C(Nc2ccccc2F)=C(C)C(=O)C1=O reads 67.2

###

# Tested on: CAKI-1 renal
# experimental-details: NCI tumour cell line growth inhibition, 48 h
Lab note: anything with TGI at or over 7 µM counts as y; the rest go in n.

CN(Cc1ccccc1)c1nc(=[N+](C)C)ss1; y
NCCCn1c2c(c3ccc([N+](=O)[O-])cc3c1=O)C(=O)c1cc(Cl)ccc1-2; n
N/C(=N\N=C/c1cc(Cl)cc(Cl)c1O)NO; y
C=CC[C@@]1(C#N)C[C@H](C[C@]2(C#N)C[C@H](CCl)OC(C)(C)O2)OC(C)(C)O1; y
O=C(O)CCc1nc(-c2ccccc2)c(-c2ccccc2)o1; y

From here, focus on the item given below.
Inquiry: Please check the record NC(N)=N/N=C(/c1ccccc1)c1ccc(O)cc1O and state if its TGI is at or above 7 µM.
Reply text: y

###

# Tested on: NCI-H460 lung
# experimental-details: NCI tumour cell line growth inhibition, 48 h
Where a SMILES comes first, the peptide text is derived from it. Side-chain parts run from the residue outwards. The star is where a group is joined. Cbz = O=C(OCc1ccccc1)*; Boc = CC(C)(C)OC(=O)*
TGI overview

Previously resolved entries follow.
O=C(Cc1ccccc1)NN1C(=O)C(Cl)C1c1ccccc1 (configuration not stated); > 100 µM
CCN(CC)CCNC(=O)c1cc2cc(NC(=O)c3cc4cc(NC(=O)c5cc6cc([N+](=O)[O-])ccc6[nH]5)ccc4[nH]3)ccc2[nH]1; > 100 µM

The measured TGI associated with COc1cc(/C=N/O)nc(-c2ccccn2)c1 reads 12.9 µM

The measured TGI associated with CC(C)CC(NC(=O)OCc1ccccc1)C(=O)NCCCCC(NC(=O)C(CCCCNC(=O)C(CC(C)C)NC(=O)OCc1ccccc1)NC(=O)C(CCCCNC(=O)C(CC(C)C)NC(=O)OCc1ccccc1)NC(=O)C(CCCCNC(=O)C(CC(C)C)NC(=O)OCc1ccccc1)NC(=O)OC(C)(C)C)C(=O)O (configuration not stated) (Boc-K([Leu-Cbz])K([Leu-Cbz])K([Leu-Cbz])K([Leu-Cbz])-OH; configuration not given here) reads > 25 µM

The measured TGI associated with CCCCCC/C=C/CCCCCCCc1cccc(O)c1C(=O)O reads > 100 µM

The measured TGI associated with O=C(NN1C(=O)C(Cl)C1c1ccc([N+](=O)[O-])cc1)c1ccccc1O (configuration not stated) reads > 100 µM

The measured TGI associated with C=C(C)C(=O)N1c2ccc(OC)cc2CC1C(=O)OCC (configuration not stated) reads > 100 µM

###

# Tested on: SNB-19 CNS
# experimental-details: NCI tumour cell line growth inhibition, 48 h; in the data active means GI50 below about 0.43 µM; inactive means the rest
Your reply should match one of these outcome classes. 1 for active, -1 for inactive

Below are worked cases with known answers.
COC(=O)C1=C2CO[C@@H]3C[C@H]4C(C)(C)CCC[C@]4(C)C(=CC1)[C@]23C; -1
COc1cc(/C=N/O)nc(-c2ccccn2)c1; -1
CCCCc1oc2ccccc2c1C(=O)c1cc(I)c(OCCN(CC)CC)c(I)c1; -1
Cc1ccc2oc(=O)cc(C3c4ccc([nH]4)C(c4cc(=O)oc5ccc(C)cc45)c4ccc([nH]4)C(c4cc(=O)oc5ccc(C)cc45)c4ccc([nH]4)C(c4cc(=O)oc5ccc(C)cc45)c4ccc3[nH]4)c2c1 (configuration not stated); 1
CC1CCC(C#N)(NOC2=NCCN2)CC1 (configuration not stated); -1
CN(C)S(=O)(=O)c1cccc(-c2nc3sc4c(c3c(=O)[nH]2)CCCC4)c1; -1
CN(C)CCC(=O)NCc1c2nc3ccccc3nc2n2ccccc12; -1
O=C(/C=C\c1ccc(OCCCCCC[P+](c2ccccc2)(c2ccccc2)c2ccccc2)cc1)c1ccc2c(c1)OCCO2; -1
CCC[CH2][Sn]1([CH2]CCC)[O]CC([CH2][Sn]([c]2ccccc2)([c]2ccccc2)[c]2ccccc2)[O]1 (configuration not stated); -1
O=C1C(Nc2cccc(O)c2)=C(Sc2ccc(Cl)cc2)C(=O)N1Cc1ccccc1; -1

Inquiry: I would be grateful if you could indicate the recorded call for Clc1ccc2c(NCCN3CCN(c4ccnc(N5CCCC5)n4)CC3)ccnc2c1 .
Reply text: -1

Inquiry: I would be grateful if you could indicate the recorded call for COc1cc(C(=O)/C=C/c2c(-c3cccs3)nc3ccccn23)cc(OC)c1OC .
Reply text: -1

###

# System: CAKI-1 renal
# experimental-details: NCI tumour cell line growth inhibition, 48 h
GI50 overview

Cc1[nH]ccc2cc3nc4ccccc4c3cc12; 2380 nM

The measured GI50 associated with COc1ccc(Cn2c3c(c4c(O)cccc42)C(=O)c2ccccc2-3)cc1 reads 14900 nM

The measured GI50 associated with CO[C@H]1/C=C/C[C@H](C)[C@@H](C)S(=O)(=O)NC(=O)c2ccc3c(c2)N(C[C@@H]2CC[C@H]21)C[C@@]1(CCCc2cc(Cl)ccc21)CO3 reads 3450 nM

The measured GI50 associated with CSc1ccc(C(=O)/C=C/c2ccc(F)cc2)cc1 reads > 100000 nM

The measured GI50 associated with COc1ccc2nc(C3=CN(C4OC(CO)C(O)C(O)C4O)C4C=CC=CC34)sc2c1 (stereo unspecified) reads 40700 nM

The measured GI50 associated with C[C@@H]1CCC2[C@@H](C)[C@H](OC(=O)CCC(=O)NCCNC(=O)Cc3cc(=O)oc4cc(N(C)C)ccc34)O[C@@H]3O[C@]4(C)CC[C@@H]1C23OO4 (stereo partly specified) reads 2640 nM

The measured GI50 associated with CN1CCN(c2ccc([N+](=O)[O-])c3no[n+]([O-])c23)CC1 reads 137 nM

The measured GI50 associated with O=C(Nn1c2c(sc1=NC1CC1)C(=O)c1ccccc1C2=O)c1cc2ccc1CCc1ccc(cc1)CC2 reads 2480 nM

The measured GI50 associated with CC(=O)[CH-]C(=O)c1ccccc1.CC(=O)[CH-]C(=O)c1ccccc1.CC12CC3(C)CC(C)(C1)CC([O-])(C2)C3.CC[O-].[Ti+4] reads 42900 nM

The measured GI50 associated with O=C(Nc1ccc([N+](=O)[O-])cc1)c1cc2ccccc2cc1O reads 260 nM

The measured GI50 associated with CCCCc1oc2ccccc2c1C(=O)c1cc(I)c(OCCN(CC)CC)c(I)c1 reads 2510 nM

###

# Test system: UACC-257 melanoma
# experimental-details: NCI tumour cell line growth inhibition, 48 h
Lab note: anything with TGI at or over 30 µM counts as fulfilled; the rest go in not fulfilled.

O=C1C(Cl)=C(Nc2ccc3c(c2NC2=C(Cl)C(=O)c4ccccc4C2=O)C(=O)c2ccccc2C3=O)C(=O)c2ccccc21; not fulfilled
CN(C)C(=O)CO/N=C1/C(c2c(O)[nH]c3ccccc23)=Nc2ccccc21; fulfilled
CC(C)[C@H](O)C(=O)N[C@H]1Cc2ccc3c(c2)[C@]24C5=C(N=C(O5)[C@H](C(C)C)NC1=O)c1nc(Cl)c(o1)-c1c(Cl)[nH]c5cccc(c15)-c1cccc2c1N[C@H]4O3; not fulfilled
CC(Nc1cc(=O)n(C)c(=O)[nH]1)c1ccccc1 (centres undefined); fulfilled

Inquiry: Please check the record C#CCOc1cccc(Nc2ncnc3c2ncn3C2CCN(C(=O)CCl)C2)c1 (centres undefined) and state if its TGI is at or above 30 µM.
Reply text: fulfilled

Inquiry: Please check the record CC(C)(C)[Si](Nc1ccccc1)(c1ccccc1)c1ccccc1 and state if its TGI is at or above 30 µM.
Reply text: not fulfilled

Inquiry: Please check the record O/N=C1/C(=C/c2ccc(Cl)cc2)CCCC1C(NO)c1ccc(Cl)cc1 (centres undefined) and state if its TGI is at or above 30 µM.
Reply text: fulfilled

Inquiry: Please check the record CCN1CCN(c2nc(C)cc(N(CCCNc3ccnc4cc(Cl)ccc34)Cc3ccco3)n2)CC1 and state if its TGI is at or above 30 µM.
Reply text: not fulfilled

Inquiry: Please check the record CCOC(=O)/C(=C\NC#N)c1nc2ccccc2[nH]1 and state if its TGI is at or above 30 µM.
Reply text: fulfilled
